Exercise: state measured pIC50 for each of the molecules provided.
- TESTED_ON: HDAC6 (Homo sapiens)
- Construct: Full length human recombinant HDAC6 protein was expressed in baculoviral system
- Sequence (Q9UBN7 whole entry): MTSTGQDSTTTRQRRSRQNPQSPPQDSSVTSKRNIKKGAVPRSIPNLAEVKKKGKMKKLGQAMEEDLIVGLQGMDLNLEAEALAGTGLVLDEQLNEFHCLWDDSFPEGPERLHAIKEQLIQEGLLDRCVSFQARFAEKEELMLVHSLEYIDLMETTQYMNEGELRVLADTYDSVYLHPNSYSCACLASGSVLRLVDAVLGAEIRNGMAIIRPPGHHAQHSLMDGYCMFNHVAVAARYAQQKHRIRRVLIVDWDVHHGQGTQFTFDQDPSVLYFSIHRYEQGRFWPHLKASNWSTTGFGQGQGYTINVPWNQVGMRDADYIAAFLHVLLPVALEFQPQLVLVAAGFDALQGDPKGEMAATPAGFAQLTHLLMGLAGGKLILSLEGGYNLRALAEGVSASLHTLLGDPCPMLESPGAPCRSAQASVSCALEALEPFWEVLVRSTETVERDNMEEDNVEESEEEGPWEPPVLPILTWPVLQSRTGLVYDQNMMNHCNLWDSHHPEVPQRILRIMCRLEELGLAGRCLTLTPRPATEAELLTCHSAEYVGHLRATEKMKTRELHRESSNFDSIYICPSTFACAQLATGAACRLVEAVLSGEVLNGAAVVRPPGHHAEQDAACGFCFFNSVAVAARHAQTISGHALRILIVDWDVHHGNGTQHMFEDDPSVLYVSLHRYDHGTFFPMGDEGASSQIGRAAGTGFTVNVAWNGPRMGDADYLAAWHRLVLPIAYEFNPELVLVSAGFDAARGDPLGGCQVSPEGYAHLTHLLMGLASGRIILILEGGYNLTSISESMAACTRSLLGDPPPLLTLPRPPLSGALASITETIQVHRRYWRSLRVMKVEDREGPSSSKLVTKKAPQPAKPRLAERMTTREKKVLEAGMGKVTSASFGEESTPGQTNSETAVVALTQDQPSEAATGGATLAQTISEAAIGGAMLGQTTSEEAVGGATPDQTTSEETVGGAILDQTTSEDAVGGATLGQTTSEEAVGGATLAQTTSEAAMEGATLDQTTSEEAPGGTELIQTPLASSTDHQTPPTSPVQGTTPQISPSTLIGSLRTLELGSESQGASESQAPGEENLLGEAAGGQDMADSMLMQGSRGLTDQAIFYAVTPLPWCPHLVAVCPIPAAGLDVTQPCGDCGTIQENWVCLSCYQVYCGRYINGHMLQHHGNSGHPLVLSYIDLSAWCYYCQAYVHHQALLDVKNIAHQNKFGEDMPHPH
- PROTOCOL_DETAILS: In vitro Histone Deacetylase Assay (enzymatic HDAC6 electrophoretic mobility shift assay)
- CONDITIONS_USED: full length human recombinant HDAC6, 1 nM enzyme, 2 μM peptide substrate RHKK(Ac)-NH2, 25° C.; read-out: HDAC6 activity range
pIC50: −log10 of the molar value.

INSERT INTO measurements (molecule, measured_result) VALUES
  ('O=C(NO)c1ccc2c(c1)CCC1(CC(=O)N(c3cccnc3)C1)C2 (single isomer, unassigned) [Compound I-224]', '≥ 7.00');

Please state pIC50 for every molecule in the list that follows.
1. CN1CCC[C@@]2(CCc3cc(C(=O)NO)ccc3C2)C1=O (single isomer, unassigned) [Compound I-179]
2. O=C(NO)c1ccc2c(c1)CC[C@@]1(CCCN(CC3CCC3)C1=O)C2 (single isomer, unassigned) [Compound I-185]
3. CC(C)N1CC2(CCc3cc(C(=O)NO)ccc3C2)CC1=O (single isomer, unassigned) [Compound I-208]
4. O=C(NO)c1ccc2c(c1)CCC1(CCN(c3nc4ccccc4[nH]3)C1=O)C2 (stereo not shown) [Compound I-5]
5. CCCN1CC[C@@]2(CCc3cc(C(=O)NO)ccc3C2)C1=O [Compound I-60]

["≥ 7.00", "≥ 7.00", "≥ 7.00", "≥ 7.00", "6.30 to 7.00"]

Cc1ccncc1N1CC[C@]2(CCc3cc(C(=O)NO)ccc3C2)C1=O [Compound I-136] yielded pIC50 of ≥ 7.00
